# studyTarget: T1, mouse TNFR1 (recombinant, R&D Systems cat no. 425-R1-050/CF, biotinylated) (mouse, UniProt P25118 22-212, biotinylated with EZ-Link NHS-LC-LC-biotin)
# T1 construct: also called murine TNFR1; biotinylated mouse TNFR1
# T1 sequence (looked up): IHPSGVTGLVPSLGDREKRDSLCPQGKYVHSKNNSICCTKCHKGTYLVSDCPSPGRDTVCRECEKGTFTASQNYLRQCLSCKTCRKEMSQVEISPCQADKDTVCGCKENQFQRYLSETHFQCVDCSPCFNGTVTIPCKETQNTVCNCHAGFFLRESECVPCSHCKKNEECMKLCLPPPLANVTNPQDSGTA
# experimentalProtocol: BIAcore, mouse TNFR1 on SA chip
# Excerpt: BIAcore was done to determine the association and dissociation rates of the different dAbs and in that way establish their binding affinity for both human and mouse TNFR1. Experiments were done using biotinylated TNFR1 (R&D Systems), of the respective species, coupled to streptavidin-coated BIAcore chips followed by injection of a concentration range of the dAbs.
Mark TRUE only when Kd stays strictly below 3 nM. Values equal to the cut-off are FALSE.

binder: DOM1h-574-133 (other, VH dAb) VH: EVQLLESGGGLVQPGGSLRLSCAASGFTFVKYSMGWVRQAPGKGLEWVSQISDTADRTYYDHSVKGRFTISRDNSKNTLYLQMNSLRAEDTAVYYCAIYTGRWEPFVYWGQGTLVTVSS
qualitativeLabel: FALSE
//
binder: DOM1h-574-135 (other, VH dAb) VH: EVQLLESGGGLVQPGGSLRLSCAASGFTFVKYSMGWVRQAPGKGLEWVSQISDTADRTYYTHSVKGRFTISRDNSKNTLYLQMNSLRAEDTAVYYCAIYTGRWVPFEYWGQGTLVTVSS
qualitativeLabel: FALSE
//
binder: DOM1h-574-72 (other, VH dAb; expressed in E. coli, purified on Protein A) VH: EVQLLESGGGLVQPGGSLRLSCAASGFTFVKYSMGWVRQAPGKGLEWVSQISNTADRTYYAHSVKGRFTISRDNSKNTLYLQMNSLRAEDTAVYYCAIYTGRWVPFEYWGQGTLVTVSS
qualitativeLabel: FALSE
//
binder: DOM1h-574-156 (other, VH dAb) VH: EVQLLESGGGLVQPGGSLRLSCAASGFTFFKYSMGWVRQAPGKGLEWVSQISDTADRTYYAHSVKGRFTISRDNSKNTLYLQMNSLRAEDTAVYYCAIYTGRWVPFEYWGQGTLVTVSS
qualitativeLabel: TRUE
//
binder: DOM1h-574-155 (other, VH dAb) VH: EVQLLESGGGLVQPGGSLRLSCAASGFTFLKYSMGWVRQAPGKGLEWVSQISDTADRTYYAHSVKGRFTISRDNSKNTLYLQMNSLRAEDTAVYYCAIYTGRWVPFEYWGQGTLVTVSS
qualitativeLabel: FALSE
//
binder: DOM1h-574-138 (other, VH dAb) VH: EVQLLESGGGLVQPGGSLRLSCAASGFTFFKYSMGWVRQAPGKGLEWVSQISDTADRTYYAHSVKGRFTISRDNSKNTLYLQMNSLRAEDTAVYYCAIYTGRWAPFEYWGQGTLVTVSS
qualitativeLabel: TRUE
//
binder: DOM1h-574-109 (other, VH dAb) VH: EVQLLESGGGLVQPGGSLRLSCAASGFTFVKYSMGWVRQAPGKGLEWVSQISDTADRTYYAHSVKGRFTISRDNSKNTLYLQMNSLRAEDTAVYYCAIYTGRWVPFEYWGQGTLVTVSS
qualitativeLabel: TRUE
//
binder: DOM1h-574-162 (other, VH dAb) VH: EVQLLESGGGLVQPGGSLRLSCAASGFTFFKYSMGWVRQAPGKGLEWVSQISDTADRTYYSHSVKGRFTISRDNSKNTLYLQMNSLRAEDTAVYYCAIYTGRWVPFEYWGQGTLVTVSS
qualitativeLabel: TRUE
//
binder: DOM1h-574-139 (other, VH dAb) VH: EVQLLESGGGLVQPGGSLRLSCAASGFTFLKYSMGWVRQAPGKGLEWVSQISDTADRTYYAHSVKGRFTISRDNSKNTLYLQMNSLRAEDTAVYYCAIYTGRWAPFEYWGQGTLVTVSS
qualitativeLabel: FALSE
